# Test system: CAKI-1
# experimentDescription: NCI tumour cell line growth inhibition, 48 h
Activity calls are given as the source filed them. No stated cut-off is given here; in the data, active = GI50 up to about 1.1 µM and inactive = higher.
Outcome field: choose from active, inactive

Use these answered entries as a reference point.
O=c1nc(NC(c2ccccc2)(c2ccccc2)c2ccccc2)ccn1CCNCCn1ccc(NC(c2ccccc2)(c2ccccc2)c2ccccc2)nc1=O :: inactive
Cc1nc2ccccc2c(=O)n1-c1ccccc1I :: inactive

Shifting focus to the compound that follows.
Lookup: In this assay, the call recorded for `COc1ccc2nc3ccccc3c(NCCN(C)CCCl)c2c1` was what?
Found: active

====

# Tested on: NCI-H460
# experimentDescription: NCI tumour cell line growth inhibition, 48 h
Active and inactive are the calls of the source. No stated cut-off is given here; in the data, active = GI50 up to about 1.1 µM and inactive = higher. Where a SMILES comes first, the peptide text is derived from it. The star is where a group is joined. Boc = CC(C)(C)OC(=O)*
endpointLabel: GI50

Examples from the recorded data:
CC(C)=NN/C(=N\c1ccc(Cl)cc1)NS(=O)(=O)c1ccc(Oc2cccc(Cl)c2C#N)cc1 :: > 100 µM (inactive)
CC(=O)Oc1ccc(/C=C/C(=O)OCCCOC(=O)/C=C/c2ccc(OC(C)=O)c(OC(C)=O)c2)cc1OC(C)=O :: > 100 µM (inactive)
Nc1ccn(C2CCC(COP(=O)(O)OCC(O)COP(=O)(O)OCC3OC(n4cc(F)c(=O)[nH]c4=O)CC3O)O2)c(=O)n1 (stereo not given) :: < 0.01 µM (active)

Short answer for `CSc1nc(=O)c2nc(-c3cccs3)c(-c3cccs3)nc2n1C` : GI50 was > 100 µM (inactive)

Short answer for `COc1cc(C/N=c2/nc(N(C)C)ss2)cc(OC)c1OC` : GI50 was > 10 µM (inactive)

Short answer for CCCC/C=C/C=C/C=C/CCCCCCCC(=O)OCC(COC(=O)CCCCCCC/C=C/C1C=CC(CCCC)C(C(=O)O)C1C(=O)O)OC(=O)CCCCCCC/C=C/C=C/C=C/CCCC.OCCNCO (stereo not given) : GI50 was 33.8 µM (inactive)

Short answer for `Cc1nc2ccccc2c(=O)n1-c1ccccc1I` : GI50 was > 100 µM (inactive)

Short answer for CC[C@]1(Cc2ccc(OC)c(OC)c2)[C@@H]2C[C@@H](C(=O)OC)ON2O[C@H](OC2CCCC2(c2ccccc2)c2ccccc2)[C@@H]1OC(C)=O (stereo not given in full) : GI50 was > 100 µM (inactive)

Short answer for `COc1ccc(N2C(=O)C(=O)C3(CCCCC3)C2=O)c2ccccc12` : GI50 was > 10 µM (inactive)

Short answer for CN1C(=O)c2c(c3c4ccccc4n(C4OC(CO)C(O)C(O)C4O)c3c3[nH]c4ccccc4c23)C1=O (stereo not given) : GI50 was 3.1 µM (inactive)

Short answer for CC(C)(C)OC(=O)NCC(=O)NCC(=O)NCC(=O)NCC(=O)O (Boc-GGGG-OH) : GI50 was > 100 µM (inactive)

Short answer for COC1CCC(OC2CC(C3(C)CCC4(CC(O)C(C)C(C(C)/C=C(\C)C(=O)C(C)CC(C)C(=O)O)O4)O3)OC3(OC(C4OC(O)(CO)C(C)CC4C)CC3C)C2C)OC1C (stereo not given) : GI50 was < 0.0144 µM (active)

Short answer for `CN(NC1=NCCO1)c1ccc2ccccc2c1` : GI50 was 27.2 µM (inactive)

Short answer for `Cc1cccc2c(N)c3cccc(C(=O)NCCCNCCN)c3nc12` : GI50 was 1.1 µM (active)

Short answer for `CCN(CC)C(=S)N/N=C/c1cc(OC)ccc1O` : GI50 was 1.66 µM (inactive)
